- Tested on: BDF1 mice, colon carcinoma 38 sc, T/C %
- assayDetails: NCI In Vivo Anticancer Drug Screen. Data for tumor model Colon Carcinoma 38 (subcutaneous) in B6D2F1 (BDF1) mice
- measurementConditions: endpoint: median tumor weight (est.); dose: 400.0 mg/kg/injection; schedule: Q07DX002 (ip); vehicle: Klucel (hydroxypropylcellulose) (HPC); higher = larger tumour
Inconclusive results are not listed.

| substanceSmiles | T/C |
| --- | --- |
| C[C@@H]1C[C@H]2[C@@H]3CCC4=CC(=O)C=C[C@]4(C)[C@@]3(F)[C@@H](O)C[C@]2(C)[C@@]1(O)C(=O)CO | 25 % of control |
| CCN(CC)CCOC(=O)/C=C\c1cccc2c(=O)cc(-c3ccccc3)oc12 | 52 % of control |
| CS(=O)(=O)OCCN(CCOS(C)(=O)=O)c1ccc(C=Nc2ccc(-c3csc(COc4ccccc4)n3)cc2)cc1 | 46 % of control |

* * *

- System: BDF1 mice, colon carcinoma 38 sc, T/C %
- assayDetails: NCI In Vivo Anticancer Drug Screen. Data for tumor model Colon Carcinoma 38 (subcutaneous) in B6D2F1 (BDF1) mice
- measurementConditions: endpoint: median tumor weight (est.); dose: 2.5 mg/kg/injection; schedule: Q07DX002 (ip); vehicle: saline; higher = larger tumour
Inconclusive results are not listed.
# key: entry, value: T/C

| compound | T/C |
| --- | --- |
| CC[n+]1c(-c2ccccc2)c2cc(N)ccc2c2ccc(N)cc21 | 99 % of control |
| OCC1OC(n2cnc3c2NC=NC[C@H]3O)CC1O (stereo not given in full) | 43 % of control |
| CC(O)CCC(=O)c1ccoc1 (stereo not given) | 166 % of control |
| C[PH+](C)C.C[PH+](C)C.[Au] | 84 % of control |
| COc1cccc2c1C(=O)c1c(O)c3c(c(O)c1C2=O)C[C@@](O)(C(=O)CO)C[C@@H]3OC1CC(N)C(O)C(C)O1 (stereo not given in full) | 90 % of control |

* * *

- System: BDF1 mice, colon carcinoma 38 sc, T/C %
- assayDetails: NCI In Vivo Anticancer Drug Screen. Data for tumor model Colon Carcinoma 38 (subcutaneous) in B6D2F1 (BDF1) mice
- measurementConditions: endpoint: median tumor weight (est.); dose: 100.0 mg/kg/injection; schedule: Q07DX003 (ip); vehicle: saline with Tween-80; higher = larger tumour
Records with an inconclusive call do not appear.

| compound | T/C |
| --- | --- |
| CC(=O)Oc1ccc[nH]c1=O | 49 % of control |
| Cc1ccccc1SSc1ccccc1C | 62 % of control |
| Nc1n[nH]c(N)n1 | 56 % of control |
| CC1(C)OC2C(COC(=O)c3ccc([N+](=O)[O-])cc3)OC(NC(=O)N(CCCl)N=O)C2O1 (stereo not given) | 40 % of control |
| CN(C)c1nc(N(C)C)nc(N(C)C)n1 | 66 % of control |

* * *

- Tested on: BDF1 mice, colon carcinoma 38 sc, T/C %
- assayDetails: NCI In Vivo Anticancer Drug Screen. Data for tumor model Colon Carcinoma 38 (subcutaneous) in B6D2F1 (BDF1) mice
- measurementConditions: endpoint: median tumor weight (est.); dose: 100.0 mg/kg/injection; schedule: Q07DX002 (ip); vehicle: saline with Tween-80; higher = larger tumour
Records with an inconclusive call do not appear.
Below, each entry is listed with its recorded T/C.

| compound | T/C |
| --- | --- |
| O=C(Nc1ccccc1C(=O)O)c1cc([N+](=O)[O-])cc([N+](=O)[O-])c1 | 69 % of control |
| N#Cc1nc(C#N)c(Sc2ccccc2)c(Sc2ccccc2)c1Sc1ccccc1 | 92 % of control |
| CCCCCCCCCCCCCCCCCCCCCC(=O)Nc1ccn(C2OC(CO)C(O)C2O)c(=O)n1 (stereo not given) | 82 % of control |
| CC(=O)OCC1(C)NC(=O)c2ccccc2O1 (stereo not given) | 98 % of control |
| Clc1ccc(CN2COc3c(ccc4cccnc34)C2)cc1Cl | 206 % of control |
| CCCCCCC(=O)/C=C/c1cccc(OCOCC)c1 | 103 % of control |
| COC1=C(OC)C(=O)C(C/C=C(\C)CC/C=C(\C)CC/C=C(\C)CC/C=C(\C)CC/C=C(\C)CC/C=C(\C)CC/C=C(\C)CC/C=C(\C)CC/C=C(\C)CCC=C(C)C)=C(C)C1=O | 83 % of control |
| CCN(CC)CCOC(=O)Cc1cccc2c(=O)cc(-c3ccccc3)oc12 | 61 % of control |
| CN(C)CCOc1ccc2c(c1)C/C(=C/c1ncc([N+](=O)[O-])n1C)C2=O | 91 % of control |
| CCn1cnc2c(=S)nc[nH]c21 | 57 % of control |

* * *

As shown below, each of these molecules has a reported T/C value.
- System: BDF1 mice, colon carcinoma 38 sc, T/C %
- assayDetails: NCI In Vivo Anticancer Drug Screen. Data for tumor model Colon Carcinoma 38 (subcutaneous) in B6D2F1 (BDF1) mice
- measurementConditions: endpoint: median tumor weight (est.); dose: 6.25 mg/kg/injection; schedule: Q07DX002 (ip); vehicle: water; higher = larger tumour
Records with an inconclusive call do not appear.
endpoint: T/C

| molecule | measuredResult |
| --- | --- |
| N=C(N)c1ccc(/C=C/c2ccc(C(=N)N)cc2O)cc1 | 86 % of control |
| Cn1cnc([N+](=O)[O-])c1[Se]c1nc(N)nc2nc[nH]c12 | 36 % of control |
| O=C(C#Cc1ccccc1)c1ccccc1 | 77 % of control |
| COc1cccc2c1C(=O)c1c(O)c3c(c(O)c1C2=O)CC(O)(/C(C)=N/NC(=O)CCCCC(=O)N/N=C(\C)C1(O)Cc2c(O)c4c(c(O)c2C(OC2CC(N)C(O)C(C)O2)C1)C(=O)c1c(OC)cccc1C4=O)CC3OC1CC(N)C(O)C(C)O1 (stereo not given) | 68 % of control |
| O=C(O)C1CC1.[Ag] | 108 % of control |

* * *

- System: BDF1 mice, colon carcinoma 38 sc, T/C %
- assayDetails: NCI In Vivo Anticancer Drug Screen. Data for tumor model Colon Carcinoma 38 (subcutaneous) in B6D2F1 (BDF1) mice
- measurementConditions: endpoint: median tumor weight (est.); dose: 16.0 mg/kg/injection; schedule: Q07DX002 (ip); vehicle: saline; higher = larger tumour
Results filed as inconclusive are left out.
Measured T/C, listed per entry for reference.

| compound | testedSystem | T/C |
| --- | --- | --- |
| Cc1c(N)nc(C(CC(N)=O)NCC(N)C(N)=O)nc1C(=O)NC(C(=O)NC(C)C(O)CC(=O)NC(C(=O)NC(OC1OC(C)C(N)C(O)C1O)C(O)c1nc(-c2nc(C(=O)NCCCC(N)CC(=O)NCCCNCCCCN)cs2)cs1)C(C)O)C(OC1OC(CO)C(O)C(O)C1OC1OC(CO)C(O)C(OC(N)=O)C1O)c1cnc[nH]1 (stereo unspecified) | BDF1 mice, colon carcinoma 38 sc, T/C % | 19 % of control |
| OCC1OC(n2cnc3c2NC=NC[C@H]3O)CC1O (stereo partly specified) | BDF1 mice, colon carcinoma 38 sc, T/C % | 74 % of control |
| Nc1nc([Se])c2ncn(C3OC(CO)C(O)C3O)c2n1 (stereo unspecified) | BDF1 mice, colon carcinoma 38 sc, T/C % | 20 % of control |
| COc1cc([C@@H]2c3cc4c(c(O)c3C[C@H]3COC(=O)[C@@H]32)OCO4)cc(OC)c1OC | BDF1 mice, colon carcinoma 38 sc, T/C % | 70 % of control |
| COC12C(COC(N)=O)C3=C(C(=O)C(C)=C(N)C3=O)N1CC1C2N1C (stereo unspecified) | BDF1 mice, colon carcinoma 38 sc, T/C % | 55 % of control |
| O=C1c2ccccc2C(=O)c2c(NCCNCCO)ccc(NCCNCCO)c21 | BDF1 mice, colon carcinoma 38 sc, T/C % | 48 % of control |

* * *

- Test system: BDF1 mice, colon carcinoma 38 sc, T/C %
- assayDetails: NCI In Vivo Anticancer Drug Screen. Data for tumor model Colon Carcinoma 38 (subcutaneous) in B6D2F1 (BDF1) mice
- measurementConditions: endpoint: median tumor weight (est.); dose: 100.0 mg/kg/injection; schedule: Q07DX003 (ip); vehicle: Klucel (hydroxypropylcellulose) (HPC); higher = larger tumour
Results filed as inconclusive are left out.
Here, each record is paired with measured T/C data.

| compound | T/C |
| --- | --- |
| C[C@]12C=CC(=O)C=C1CC[C@@H]1[C@@H]2C(=O)C[C@@]2(C)[C@H]1CC[C@]2(O)C(=O)CO | 76 % of control |
| CCCCCC(=O)O[C@]1(C(C)=O)CC[C@H]2[C@@H]3CCC4=CC(=O)CC[C@]4(C)[C@H]3CC[C@@]21C | 81 % of control |
| ClCCCCCCCCCCc1ccccc1 | 65 % of control |
| Cc1ccc(NCC2(/N=C/c3ccccc3)OC(CO)C(O)C2O)cc1 (centres undefined) | 106 % of control |
